Source of measurements: patent US7884234B2

Experimental Target: recombinant rat PAI-1 (Rattus norvegicus, UniProt P20961)
Sequence (P20961 24-402): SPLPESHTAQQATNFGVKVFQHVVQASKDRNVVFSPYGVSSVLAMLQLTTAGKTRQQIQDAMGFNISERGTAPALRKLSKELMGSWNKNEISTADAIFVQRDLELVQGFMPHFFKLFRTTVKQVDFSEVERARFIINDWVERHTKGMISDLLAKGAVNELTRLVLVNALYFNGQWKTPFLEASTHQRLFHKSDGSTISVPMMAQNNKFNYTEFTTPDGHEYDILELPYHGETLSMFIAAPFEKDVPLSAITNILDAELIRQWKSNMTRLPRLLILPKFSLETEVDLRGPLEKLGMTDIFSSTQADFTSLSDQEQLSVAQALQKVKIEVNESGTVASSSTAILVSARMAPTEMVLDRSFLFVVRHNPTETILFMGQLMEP
Procedure Details: Test Example 3: rat PAI-1 inhibitory activity (tPA fluorogenic substrate assay, pH7.4 HEPES buffer)
Assay Setup: pH7.4 HEPES buffer; obtained from Table 7 results
Parameter Measured: IC50 (nM)
Answers are plain numbers, in nM.

CC(C)(C)c1ccc(CN(C(=O)C(=O)O)c2cc(-c3ccc(OC(F)(F)F)cc3)cc(C(F)(F)F)c2)cc1 [compound 18] ... 1610
CC(C)(C)c1ccc(CN(C(=O)C(=O)O)c2ccc(-c3ccc(OC(F)(F)F)cc3)cc2Cl)cc1 [compound 26] ... 2160
CC(C)(C)c1ccc(CN(C(=O)C(=O)O)c2ccc(Oc3ccc(OC(F)(F)F)cc3)cc2C(F)(F)F)cc1 [compound 54] ... 2040

Consider the compound Cc1ccc(N(Cc2ccc(C(C)(C)C)cc2)C(=O)C(=O)O)cc1-c1ccc(OC(F)(F)F)cc1 [compound 56] . State its measured IC50.
1870
